Reported values of EC50 for individual entries
# STUDY_SYSTEM: human S1P1 receptor (Homo sapiens)
# Construct: membranes were used
# Sequence (P21453 whole entry): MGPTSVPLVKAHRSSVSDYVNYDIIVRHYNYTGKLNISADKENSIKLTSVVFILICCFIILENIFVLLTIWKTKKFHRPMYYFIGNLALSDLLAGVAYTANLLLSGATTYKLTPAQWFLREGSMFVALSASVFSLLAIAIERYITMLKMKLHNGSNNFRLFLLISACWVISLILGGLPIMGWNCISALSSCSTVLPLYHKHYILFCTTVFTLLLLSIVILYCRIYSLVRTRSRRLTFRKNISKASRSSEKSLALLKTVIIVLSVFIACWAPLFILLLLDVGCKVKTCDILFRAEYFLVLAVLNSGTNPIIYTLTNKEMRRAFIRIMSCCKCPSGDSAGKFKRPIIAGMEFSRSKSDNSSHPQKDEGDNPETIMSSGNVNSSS
# ASSAY_METHOD_TEXT: GTP γ35S binding assay for S1P1 activity
# MEASUREMENT_SETUP: membranes of cells stably expressing S1P1 receptor, agonist potency

Recorded results for 4 molecules are shown here.
O=P(O)(O)OCCNCc1ccc(-c2noc(CCCCc3ccccc3)n2)c2ccccc12 22.4 nM
O=P(O)(O)CCCNCc1ccc(-c2noc(CCCc3ccccc3)n2)c2cccnc12 9.87 nM
O=P(O)(O)CCCNCc1ccc(-c2noc(CCCCc3ccccc3)n2)c2ccccc12 24.9 nM
O=P(O)(O)CCCNCc1ccc(-c2noc(CCCCc3ccccc3)n2)c2cccnc12 3.52 nM

Turning now to a further record.
Answer with the recorded EC50 for the molecule listed here: O=P(O)(O)CCCNCc1ccc(-c2noc(CCCCCc3ccccc3)n2)c2cccnc12 46.7 nM

Hey, just so you know, these numbers are from patent US8957051B2.
